The reported numbers originate from patent US20220073643A1.

Target: human Claudin18.2 (human)
Test: cell-based or functional assay
Entries annotated with measured CDC % Relative activity
Field format: number, assumed %, no unit text.

Reference set, count: 5
Binder	CDC % Relative activity / %
246B5F2 (antibody, IgM, V domains shown) VH: EVMLVESGGGLMKPGGSLKLSCAASEFTFSNYAMSWVRQTPEKRLEWVATISSGRSSTYYPDSVKGRFTISRDNAKNTLYLQMSSLRSEDTAMYYCAGLGRGNAMEYWGQGTSVTVSS VL: DIVMTQSPSSLTVTAGEKVTLSCKSSQSLLNSGNQKNYLTWYQQKPGQPPKLLIYWASTRESGVPDRFTGSGSGTDFILTINSVQAEDLAVYYCQNAYSYPFTFGSGTKLEIK	787
226A4B5 (antibody, V domains shown) VH: QAYLQQSGAELVRSGASVRMSCKASGFTFTSYNIHWVKQTPGQGLEWIGYIYPGSGGSNYNQKFMGKATLTADTSSSTVYMQISSLTSEDSAVYFCATGRGFAYWGQGTLVTVSA VL: DIVMTQSPSSLTVTAGEKVTMSCKSSQSLFNSGNQKNYLTWYQQKPGQPPKLLIYRASTRESGVPDRFTGSGSGTDFTLTISSVQAEDLAVYYCQNDYSYPLTFGTGTKLELK	73
235A10C9 (antibody, V domains shown) VH: QAYLQQSGAELVRSGASVKMSCKASGYTFASHNMHWVKQTPGQGLEWIGYIYPGNSGTKYNQKFTGKATLTADTSSSTAYMQITSLTSEDSAVYFCARDYYGNSFAYWGQGTLVTVSA VL: DIVMTQSPSSLTEKAGEKVSMRCKSSQSLLNSGNQKNYLTWYQQKPGQPPKLLIYWASTRESGVPDRFTGSGSGTDFTLTISSVQADDLAVYYCQNDYMFPFTFGAGTKLELK	137
420G10G3 (antibody, V domains shown) VH: DVQLVESGGGLVQPGGSRKLSCAASGFTFSGFGMHWIRQTAEKGLEWVAYISSGSRPIYYADTVQGRFTISRDNPKNTLFLQMTSLRSEDTAMYFCARFYYGNSFDHWGQGTLVTVSA VL: DIVMTQSPSFLTVTAGEKVTMSCKSSQSLLNSGNQKNYLTWYQQKPGQPPKLLIYWASTRESGVPDRFTGSGSGTDFTLTISSVQAEDLALYYCQNAYSFPLTFGAGTKLELK	72.4
243F6D2 (antibody, V domains shown) VH: QAYLQQSGAELVRSGASVKMSCRASGYTFTSHNMHWVKQTPGQGLEWIGYIYPGNGGTYYNQKFKGKATLTADTSSSTAYMQISSLTSEDSAVYFCARDYYGNSFVYWGQGTLVTVSA VL: DVVMTQSPSSLTEKTGEKVSMSCKSSQSLLNSGNQKNYLTWYQQKPGQPPKLLIYWASTRESGVPDRFTGSGSGTDFTLTISSLQTEDLAVYYCQNNYRYPFTFGAGTKLELK	70.5

Find the recorded CDC % Relative activity belonging to 240F8G2 (antibody, V domains shown) VH: QAYLQQSGAELVRSGASVKMSCKASGYTFTNYNIHWVKQTPGQGLEWIGYIYPGNGGNYYNQKFKGKATLTADTSSSTAYMQISSLTSEDSAVYFCARDYYGNSFAYWGQGTLVTVSA VL: DIVVTQSPSSLTVTAGEKVTMNCKSSQSLLNSGNQKNYLTWYQQKPGQPPKLLIYWASTRESGVPDRFTGSGSGTDFTLTISSVQAEDLAIYYCQNDYYYPLTFGAGTKLELK and report it.
126

# iterate: 263E9F3 (antibody, V domains shown) VH: EIQVQQSGPELMKPGASVKISCRSSGYSFTSYYIHWVKQSRGKSLEWIGYIDPFSGGTRYNQKFEGKATLTVDKSSTTAYMHLSSLTSEDSAVYYCASLRFFAYWGQGTLVTVSA VL: DIVMTQSPSSLTVTAGEKVTMTCKSSQSLLNSGNQENYLTWYQQKPGQPPELLISRASTRQSGVPDRFTGSGSGTDFTLTISSVQTEDLAVYYCQNDYSYPLTFGAGTKLELK
116

# iterate: 242H12D6 (antibody, V domains shown) VH: QAYLQQSGAELVRSGASVKMSCKASGYTFTSHNMHWVKQTPGQGLEWIGYIYPGNGGTNYNQKFKGKATLTADTSSSTAYMQINSLTSEDSAVYFCTRDYYGNSFAYWGQGTLVTVSA VL: DIVMTQSPSSLTEKAGERVSMSCKSSQSLFNSGNQKNYLTWYQQKPGQPPKLLIYWASTRESGVPDRFTGSGSGTDFTLTISSVQAEDLAVYYCQNDYRYPFTFGAGTKLELK
112

# iterate: 234A10F7 (antibody, V domains shown) VH: QVQLQQSGAELVKPGASVKLSCKASGYTFTSFGINWLRQRPEQGLEWIGWIFPGDGNSKYNENFKGKATLTTDKSSSTAYMQLTRLTSEDSAVYFCARFYYGNSFAYWGQGTLVTVSA VL: DIVMTQSPSSLTVTTGQKVTMSCKSSQSLLNSGNQKNYLTWYQQKPGQPPKLLIYWAATRESGVPDRFTGSGSGTDFTLTISSVQAEDLAVYYCQNDYFYPFTFGAGTKLELK
62

# iterate: 430B3F1 (antibody, V domains shown) VH: DVQLVESGGGLVQPGGSRKLSCAASGFTFSGFGMHWIRQTPEKGLEWVAYISSGGRPIYYADTVQGRFTISRDNPKNTLFLQMTSLRSEDTAMYFCARFYYGNSFDHWGQGTLVTISS VL: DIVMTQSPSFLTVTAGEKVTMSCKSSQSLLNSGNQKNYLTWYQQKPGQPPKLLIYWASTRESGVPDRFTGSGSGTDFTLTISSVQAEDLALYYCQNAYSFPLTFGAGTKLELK
70.2
